Assay: Plasma pharmacokinetics in satellite animals (LC-MS/MS), 60 min after i.m. dose
Details: cynomolgus monkey, plasma, intramuscular, 0.3 mg/kg, nM total compound in plasma from satellite animals, 60 min, 0.30 mg/kg i.m.; mean
measurement type: concentration at 60 min

## Input Return concentration at 60 min (reported value) for this compound: Cl.O=C(N[C@@H]1CN2CCC1CC2)c1n[nH]c2ccccc12 [RG3487]
## Output 123 nM

###

Assay: Plasma concentration in vsPAL subjects immediately after completion of testing (LC-MS/MS)
Settings: cynomolgus monkey, in vivo, 0.03 mg/kg, nM total compound in plasma post session, 0.03 mg/kg i.m.; individual subjects
measurement type: concentration at 69.8 min (nM)
Report as a plain number; the unit nM is understood.

## Input Let me know recorded concentration at 69.8 min for c1cn(-c2cc(NC3=NC[C@@]4(CN5CCC4CC5)O3)ncn2)cn1 [BMS-933043] , thanks.
## Output 13.4

###

Experiment: Plasma concentration in vsPAL subjects immediately after completion of testing (LC-MS/MS)
Details: cynomolgus monkey, in vivo, mean plasma concentration at which improved eventual accuracy was observed, experimental subjects on completion of behavioral testing; efficacious doses
measurement type: concentration at 69.8 min

## Input In one line, give reported concentration at 69.8 min of the entry c1cn(-c2cc(NC3=NC[C@@]4(CN5CCC4CC5)O3)ncn2)cn1 .
## Output 13.3 to 140 nM

###

Test: Plasma pharmacokinetics in satellite animals (LC-MS/MS), 60 min after i.m. dose
Conditions: cynomolgus monkey, plasma, intramuscular, 1 mg/kg, nM total compound in plasma from satellite animals, 60 min, 1.00 mg/kg i.m.; individual subjects
measurement type: concentration at 60 min
Put down the number, then write its unit next to it.

## Input Provide only the value of recorded concentration at 60 min for Cl.O=C(N[C@@H]1CN2CCC1CC2)c1n[nH]c2ccccc12
## Output 595 nM

###

Assay: Plasma pharmacokinetics in satellite animals (LC-MS/MS), 60 min after i.m. dose
Settings: cynomolgus monkey, in vivo, 1 mg/kg, nM total compound in plasma from satellite animals, 60 min, 1.00 mg/kg i.m.; mean
measurement type: concentration at 60 min (nM)
Output spec: scalar in nM, unitless text.

## Input Answer with the recorded concentration at 60 min of c1cn(-c2cc(NC3=NC[C@@]4(CN5CCC4CC5)O3)ncn2)cn1 [BMS-933043] only.
## Output 920

###

Assay: Plasma pharmacokinetics in satellite animals (LC-MS/MS), 60 min after i.m. dose
Conditions: cynomolgus monkey, plasma, intramuscular, 0.1 mg/kg, nM total compound in plasma from satellite animals, 60 min, 0.10 mg/kg i.m.; mean
measurement type: concentration at 60 min (nM)
All answers are understood in nM, so give the number only.

## Input Return reported concentration at 60 min. Input compound: Cl.O=C(N[C@@H]1CN2CCC1CC2)c1n[nH]c2ccccc12
## Output 58.7

###

Assay: Plasma pharmacokinetics in satellite animals (LC-MS/MS), 60 min after i.m. dose
Conditions: cynomolgus monkey, plasma, intramuscular, mean plasma concentrations, satellite animals 60 min post-administration, 0.1-1.0 mg/kg dose range
measurement type: concentration at 60 min

## Input Please list concentration at 60 min recorded for the compound Cl.O=C(N[C@@H]1CN2CCC1CC2)c1n[nH]c2ccccc12
## Output 58.7 to 450 nM

###

Experiment: Plasma concentration in vsPAL subjects immediately after completion of testing (LC-MS/MS)
Conditions: cynomolgus monkey, in vivo, 0.1 mg/kg, nM total compound in plasma post session, 0.10 mg/kg i.m.; mean 69.8 min post injection; group mean
measurement type: concentration at 69.8 min (nM)
Respond numerically; units are nM and should not be typed.

## Input Quickly give me recorded concentration at 69.8 min for c1cn(-c2cc(NC3=NC[C@@]4(CN5CCC4CC5)O3)ncn2)cn1 [BMS-933043]
## Output 47.8

###

Test: Plasma concentration in vsPAL subjects immediately after completion of testing (LC-MS/MS)
Conditions: cynomolgus monkey, in vivo, 1 mg/kg, nM total compound in plasma post session, 1.00 mg/kg i.m.; mean 69.8 min post injection; group mean
measurement type: concentration at 69.8 min (nM)
Numeric only. Scale: nM

## Input Quickly give me recorded concentration at 69.8 min for c1cn(-c2cc(NC3=NC[C@@]4(CN5CCC4CC5)O3)ncn2)cn1
## Output 493

###

Assay: Plasma concentration in vsPAL subjects immediately after completion of testing (LC-MS/MS)
Details: cynomolgus monkey, in vivo, 0.3 mg/kg, nM total compound in plasma post session, 0.30 mg/kg i.m.; mean 69.8 min post injection; group mean
measurement type: concentration at 69.8 min

## Input Please report concentration at 69.8 min for the following molecule: c1cn(-c2cc(NC3=NC[C@@]4(CN5CCC4CC5)O3)ncn2)cn1
## Output 140 nM

###

Assay: Plasma pharmacokinetics in satellite animals (LC-MS/MS), 60 min after i.m. dose
Details: cynomolgus monkey, in vivo, 1 mg/kg, nM total compound in plasma from satellite animals, 60 min, 1.00 mg/kg i.m.; individual subjects
measurement type: concentration at 60 min (nM)
Lab book: enter the figure in nM, no units written.

## Input Return concentration at 60 min for the following compound: c1cn(-c2cc(NC3=NC[C@@]4(CN5CCC4CC5)O3)ncn2)cn1
## Output 739

###

Test: Plasma pharmacokinetics in satellite animals (LC-MS/MS), 60 min after i.m. dose
Conditions: cynomolgus monkey, plasma, intramuscular, 0.3 mg/kg, nM total compound in plasma from satellite animals, 60 min, 0.30 mg/kg i.m.; individual subjects
measurement type: concentration at 60 min

## Input Kindly indicate its recorded concentration at 60 min. Item: Cl.O=C(N[C@@H]1CN2CCC1CC2)c1n[nH]c2ccccc12
## Output 114 nM

###

Assay: Plasma concentration in vsPAL subjects immediately after completion of testing (LC-MS/MS)
Details: cynomolgus monkey, in vivo, 0.1 mg/kg, nM total compound in plasma post session, 0.10 mg/kg i.m.; individual subjects
measurement type: concentration at 69.8 min

## Input Give the reported value of concentration at 69.8 min for this record: c1cn(-c2cc(NC3=NC[C@@]4(CN5CCC4CC5)O3)ncn2)cn1
## Output 56.3 nM

###

Test: Plasma pharmacokinetics in satellite animals (LC-MS/MS), 60 min after i.m. dose
Details: cynomolgus monkey, plasma, intramuscular, 0.1 mg/kg, nM total compound in plasma from satellite animals, 60 min, 0.10 mg/kg i.m.; individual subjects
measurement type: concentration at 60 min
Could you give the number and then its unit, please?

## Input Answer with the recorded concentration at 60 min for the compound listed here: Cl.O=C(N[C@@H]1CN2CCC1CC2)c1n[nH]c2ccccc12
## Output 42.9 nM
